# TARGET: LPA/S1P GPCR of interest (Homo sapiens, UniProt Q92633)
# Sequence (Q92633 whole entry): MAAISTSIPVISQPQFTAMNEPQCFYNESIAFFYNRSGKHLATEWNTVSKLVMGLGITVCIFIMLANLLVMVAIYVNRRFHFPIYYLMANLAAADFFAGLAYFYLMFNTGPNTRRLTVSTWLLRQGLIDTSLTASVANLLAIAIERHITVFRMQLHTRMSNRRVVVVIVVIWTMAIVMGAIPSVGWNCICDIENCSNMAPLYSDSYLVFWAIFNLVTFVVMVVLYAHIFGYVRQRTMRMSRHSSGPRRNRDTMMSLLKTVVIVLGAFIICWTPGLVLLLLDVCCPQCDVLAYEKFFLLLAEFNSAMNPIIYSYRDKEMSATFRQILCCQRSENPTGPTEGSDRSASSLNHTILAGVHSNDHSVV
# ASSAY DETAILS: Beta-Arrestin based assay (PathHunter)
pEC50: −log10 of the molar value.
ATTRIBUTE MEASURED: pEC50

Check out these entries, answers already filled in.
mol=Cc1nsc(-c2cc3sc(-c4ccc(C5(C(=O)O)CC5)s4)cc3s2)c1NC(=O)O[C@H](C)c1ccccc1 reported="6.30 to 7.30"
mol=C[C@@H](OC(=O)Nc1c(-c2cc3sc(-c4ccc(C5(C(=O)O)CC5)s4)cc3s2)cnn1C)c1ccccc1 reported="6.30 to 7.30"
mol=C[C@@H](OC(=O)Nc1c(-c2cc3sc(-c4cc(Cl)c(C5(C(=O)O)CC5)cc4F)cc3s2)cnn1C)c1ccccc1 reported="6.30 to 7.30"
mol=Cc1nsc(-c2ccc(-c3ccc(CC(=O)O)s3)cc2)c1NC(=O)O[C@H](C)c1ccccc1 reported="< 6.30"

Q: Record request: pEC50 value, item Cc1noc(-c2ccc(-c3cc(F)c(Oc4nc5ccccc5cc4C(=O)O)c(F)c3)cc2)c1NC(=O)O[C@H](C)c1ccccc1
Result: > 7.30

Q: I'd like to know its pEC50. The compound in question is Cc1nsc(-c2cc3sc(-c4ccc5[nH]c(C6(C(=O)O)CC6)nc5c4)cc3s2)c1NC(=O)O[C@H](C)c1ccccc1
Result: < 6.30

Q: Reported pEC50 for Cc1nsc(-c2ccc(-c3ccc(OC(C)(C)C(=O)O)cc3)cc2)c1NC(=O)O[C@H](C)c1ccccc1 : what is it?
Result: 6.30 to 7.30

Ref: patent US20140213538A1
